All values here come from ChEMBL document CHEMBL4513216.

I'd be grateful if you could share measured INHIBITION for these entries.
# System: Plasmodium berghei
# assayRemarks: Screen against P. berghei liver stage (PbLuc), transformed with Luciferase, at 10uM
# Assay type: functional, HepG2
# protocolConditions: tested at 10 uM
The whole screen tested about 69,000 compounds, of which about 8,600 (12%) showed an effect of 50% or more. Shown is part of a subset that was picked to be rich in strong results.
Write the answer as a number in %, unit excluded.

Q: Look up and report measured INHIBITION for this entry: Cc1cc(NC(=O)CN2CCc3c(nc(C(C)C)n3C)C2)n(C)n1
A: 36

Q: Look up and report measured INHIBITION for this entry: CC(=O)NCC(=O)Nc1cc(C)n(-c2ccc(Cl)cc2Cl)n1
A: 50

Q: Look up and report measured INHIBITION for this entry: CC(CNC(=O)c1cnc[nH]1)Oc1ccccc1Br (stereo unspecified)
A: 57.2

Q: Look up and report measured INHIBITION for this entry: CC(=O)N1CCOC(c2c(C(=O)O)sc3ccccc23)C1 (stereo unspecified)
A: -9.51

Q: Look up and report measured INHIBITION for this entry: Cc1cc(NC(=O)N2CCOCC2)nn1-c1ccccc1Cl
A: 33.4

Q: Look up and report measured INHIBITION for this entry: Cc1cc(NC(=O)N2CCC[C@@H]2CO)nn1-c1ccccc1Cl
A: 30.8
